Hi there, I'd appreciate the recorded protein stability index for every entry that follows.
- protocol: protein stability index of a GFP-peptide fusion (yeast GPS) (PSI 1-4); higher = more stable; sorted into four equal gates, so the index is relative within each strain
- measurement-parameters: san1∆
Answers are plain numbers.

Some sequences with known protein stability index results, for comparison:
SSDAFEVDVCDKCGLMG [RET1]: 2.33
DDDERVEYNLFTNRSTM [BRN1]: 3.11
PKMQWSLQDNSAAINNE [RPN4]: 2.96
HLLLGFQVSNVISLGPN [YJL039C/NUP192]: 2.08
KTLIGLQGIVIWDSQKF [POP4]: 2.17
LAVEDKPSPIDSGIGSN [CSL4]: 3.06
MENDKGQLVELYVPRKC [RPS21A]: 3.23
QEFFFHAMGGREGLIDT [RPO21]: 2.39
LNDLNHLLVQLQKNDVY [REC8]: 2.47
TKIPQIGDKFASRHGQK [RPB2]: 2.77

List reported protein stability index for each of these sequences:
1. KLASTLEKISSSNKDLE [SMC4]
2. IDATLKEELLRDGVLTV [RRP45]
3. TANDQYSSILGNSFNKS [YCG1]

output:
2.96
2
3.31

List reported protein stability index for each of these sequences:
1. AKGFYHTPMVNFESISA [SRB8]
2. ANVLDPSLRKLIESGIG [BRR2]
3. YKEQIIQGFYWAVKEGP [SNU114]
4. SYNNTGISDDENDEEDI [RRP4]
5. LNTVLIADLDTEAEETS [RRP43]
6. NKSRSSGHFSTDSRTGQ [CDC53]

output:
1.52
2.47
2.23
2.84
3.04
3.12

List reported protein stability index for each of these sequences:
1. QISLNRLIDSMKQYSYL [RRI1]
2. LFAGYTDNVIRVWQVMT [ASC1]
3. DNSATSYYELETIIFDS [RRI1]
4. AVFYTPKELGGLGMISA [PRP8]

output:
2.48
1.86
3.11
2.4

---

- protocol: protein stability index of a GFP-peptide fusion (yeast GPS) (PSI 1-4); higher = more stable; sorted into four equal gates, so the index is relative within each strain
- measurement-parameters: ubr1∆
Lab note: compare protein stability index against 2. Equal or greater, write criterion met. Smaller, write criterion not met.

GASTGNANTGFSFGGTQ [YGL172W/NUP49]: criterion met
NVMLNIYPRTVIDIEIH [SKI6]: criterion not met
HLLRQTNAFLDSLTRAV [SNF2]: criterion met
FEENDHPNRVLEHLHST [COR1]: criterion met
INSIDTTESSDLKEGLQ [GRR1]: criterion met
DNSATSYYELETIIFDS [RRI1]: criterion met

input: Given the entry KNHTHNLPGNITVVLGV [RRP4] , answer whether its protein stability index meets or surpasses 2.
output: criterion met

input: Given the entry RSMSGQPPTNVQPTIGQ [SNF5] , answer whether its protein stability index meets or surpasses 2.
output: criterion met

input: Given the entry QQAQAQAQAQAQAQAQA [GAL11] , answer whether its protein stability index meets or surpasses 2.
output: criterion met

input: Given the entry IASDGSYVNYRHMALLV [RPO21] , answer whether its protein stability index meets or surpasses 2.
output: criterion not met

input: Given the entry RLKFGHRLIATHTNLER [SNF2] , answer whether its protein stability index meets or surpasses 2.
output: criterion met

input: Given the entry ILCIFEGEKCHPQDFGN [SEC65] , answer whether its protein stability index meets or surpasses 2.
output: criterion met

input: Given the entry YCKGKTCRKHTQHKVTQ [RPL42A] , answer whether its protein stability index meets or surpasses 2.
output: criterion met
